APOE RNA (% control) Spinal Cord by entry:
Test system: human APOE RNA
Assay: Activity in APOE C57BL/6NTac-Apoeem7250 knock-in mice, single ICV bolus, 8 weeks (Example 11)
Format: in vivo
Details: spinal cord; single ICV bolus 300 μg; 8 weeks post treatment; normalized to mouse Ppia
Description: Modified oligonucleotides described above were tested in the APOE C57BL/6NTac-Apoeem7250 knock-in mouse model described above. Each mouse received a single ICV bolus of 300 μg of modified oligonucleotide. […] Eight weeks post treatment, mice were sacrificed and RNA was extracted from cortical brain tissue and spinal cord for quantitative real-time RT-PCR analysis of RNA expression of APOE using human primer probe set RTS3073 (described herein above). […]
Strand notation (5' to 3'): a small letter for the sugar, then the base; units joined by * are phosphorothioate-linked, units joined directly phosphodiester-linked; [ ] holds rarer units or linkages, { } end groups; capitals alone tell only the bases. [ms] = mesyl phosphoramidate linkage; e = 2'-O-(2-methoxyethyl) (MOE); k = constrained ethyl (cEt); [5mC] = 5-methylcytosine; d = 2'-deoxy (DNA)
Entry rule: numbers only, all in % control.

1. 1778129: modified oligonucleotide complementary to human APOE RNA (eA*e[5mC]eTeTeG*kG*dT*dG[ms]dA[ms]dA*dT*d[5mC]*dT*dT*dT*dA[ms]kT*kT*eA*eA; antisense) [compound 1778129] | 9
2. 1746809 (k[5mC]*dT[ms]kT*dG[ms]kG*dT[ms]dG[ms]dA[ms]dA[ms]dT*d[5mC]*dT*dT*dT*dA[ms]dT*dT[ms]kA*kA*kA; antisense) [Compound 1746809] | 44
3. 1778154: modified oligonucleotide complementary to human APOE RNA (e[5mC]*eT*eTeGeGeT*dG[ms]dA[ms]dA*dT*d[5mC]*dT*dT*dT*dA*dT*kTkAeA*eA; antisense) [compound 1778154] | 32

The recorded APOE RNA (% control) Spinal Cord for 1778130: modified oligonucleotide complementary to human APOE RNA (eA*e[5mC]eTeTeG*kG*dT*dG[ms]dA[ms]dA*dT*d[5mC]*dT*dT*dT*dA[ms]kTkT*eA*eA; antisense) [compound 1778130] is 18
